Provide the reported log10 EC50 of each item.
Biological target: Nitric oxide synthase 3 (Homo sapiens)
Sequence (P29474 whole entry): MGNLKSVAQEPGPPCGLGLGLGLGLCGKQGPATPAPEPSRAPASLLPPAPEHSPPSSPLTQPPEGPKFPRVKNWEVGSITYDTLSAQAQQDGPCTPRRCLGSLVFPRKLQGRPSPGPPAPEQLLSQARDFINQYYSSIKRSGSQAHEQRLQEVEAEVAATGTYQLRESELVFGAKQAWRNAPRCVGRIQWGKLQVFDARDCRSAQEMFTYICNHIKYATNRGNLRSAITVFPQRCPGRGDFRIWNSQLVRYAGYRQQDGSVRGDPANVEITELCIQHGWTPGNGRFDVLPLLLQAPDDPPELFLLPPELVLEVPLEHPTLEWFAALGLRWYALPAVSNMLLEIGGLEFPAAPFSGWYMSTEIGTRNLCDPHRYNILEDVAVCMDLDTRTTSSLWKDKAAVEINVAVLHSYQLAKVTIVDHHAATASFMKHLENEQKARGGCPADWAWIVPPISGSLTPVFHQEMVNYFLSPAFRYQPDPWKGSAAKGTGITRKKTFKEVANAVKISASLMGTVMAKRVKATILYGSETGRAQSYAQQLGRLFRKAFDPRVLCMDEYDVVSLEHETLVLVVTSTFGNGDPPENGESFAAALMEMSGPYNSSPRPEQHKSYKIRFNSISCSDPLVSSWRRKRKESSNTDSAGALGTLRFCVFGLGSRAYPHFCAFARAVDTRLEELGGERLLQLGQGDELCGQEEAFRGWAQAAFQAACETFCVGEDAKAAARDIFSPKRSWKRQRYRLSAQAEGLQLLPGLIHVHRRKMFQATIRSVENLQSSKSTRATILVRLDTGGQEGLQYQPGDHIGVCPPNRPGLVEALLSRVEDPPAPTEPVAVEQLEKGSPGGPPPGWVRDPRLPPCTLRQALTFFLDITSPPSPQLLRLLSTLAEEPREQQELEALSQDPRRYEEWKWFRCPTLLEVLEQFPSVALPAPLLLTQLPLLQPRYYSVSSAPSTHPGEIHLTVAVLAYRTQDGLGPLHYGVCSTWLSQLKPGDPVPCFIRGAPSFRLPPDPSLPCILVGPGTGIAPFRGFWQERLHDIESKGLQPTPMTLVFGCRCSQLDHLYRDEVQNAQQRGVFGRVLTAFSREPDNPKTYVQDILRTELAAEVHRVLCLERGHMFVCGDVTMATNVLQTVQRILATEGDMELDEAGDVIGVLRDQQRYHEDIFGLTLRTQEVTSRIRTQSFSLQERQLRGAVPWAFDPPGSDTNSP
Assay: Inhibition of human eNOS expressed in HEK293 cells assessed as NO production by transient transfection assay
All values: base-10 log of EC50 in µM.

Answer briefly: log10 EC50 recorded on Nitric oxide synthase 3 (Homo sapiens) for "Cc1ncsc1C(=O)N(Cc1c[n+]([O-])cc2c(F)c(F)ccc12)c1cccc(Cl)c1" 1.53

Answer briefly: log10 EC50 recorded on Nitric oxide synthase 3 (Homo sapiens) for "Cc1ncsc1C(=O)N(Cc1cc(=O)[nH]c2cc(F)ccc12)c1cccc(Cl)c1" 1.52

Answer briefly: log10 EC50 recorded on Nitric oxide synthase 3 (Homo sapiens) for "Cc1ncsc1C(=O)N(Cc1cc(=O)[nH]c2c(F)c(F)ccc12)c1cccc(Cl)c1" 0.48

Answer briefly: log10 EC50 recorded on Nitric oxide synthase 3 (Homo sapiens) for "Cc1ncsc1C(=O)N(Cc1cc(=O)[nH]c2c(F)cccc12)c1cccc(F)c1" 1.18

Answer briefly: log10 EC50 recorded on Nitric oxide synthase 3 (Homo sapiens) for "Cc1ncsc1C(=O)N(Cc1cncc2c(F)c(F)ccc12)c1cccc(Cl)c1" 1.57

Answer briefly: log10 EC50 recorded on Nitric oxide synthase 3 (Homo sapiens) for "Cc1cnccc1C(=O)N(Cc1cc(=O)[nH]c2c(F)cccc12)c1cccc(Cl)c1" 1.11

Answer briefly: log10 EC50 recorded on Nitric oxide synthase 3 (Homo sapiens) for "Cc1noc(C)c1C(=O)N(Cc1cc(=O)[nH]c2c(F)cccc12)c1cccc(Cl)c1" 0.83

Answer briefly: log10 EC50 recorded on Nitric oxide synthase 3 (Homo sapiens) for "Cc1ncsc1C(=O)N(Cc1c(F)c(=O)[nH]c2c(F)cccc12)c1cccc(Cl)c1" 1.54

Answer briefly: log10 EC50 recorded on Nitric oxide synthase 3 (Homo sapiens) for "Cn1cncc1C(=O)N(Cc1cc(=O)[nH]c2c(F)c(F)ccc12)c1cccc(Cl)c1" -0.38
